Target: EP1 receptors (Homo sapiens, UniProt P34995)
Assay: Binding assay for the human prostanoid EP1 receptor (competition with [3H]-PGE2)
Design: expressed in transfected cells; host or cells: CHO-K1 cells, membrane fraction
Settings: [3H]-PGE2 competition; averages of a number of experiments; read-out: pIC50 value, binding assay for the human prostanoid EP1 receptor (converted)
metric: IC50

# substanceSmiles, system, result
measured = [
    ("O=C(O)c1csc(Cc2cc(Br)ccc2OCc2ccc(F)cc2)n1", "EP1 receptors (Homo sapiens, UniProt P34995)", "≤ 31.6 nM"),
    ("O=C(O)Cc1csc(-c2cc(Cl)ccc2OCc2ccc(F)cc2)n1", "EP1 receptors (Homo sapiens, UniProt P34995)", "≤ 1000 nM"),
    ("CCCOc1ccc(C(F)(F)F)cc1Cc1nc(C(=O)O)cs1", "EP1 receptors (Homo sapiens, UniProt P34995)", "≤ 31.6 nM"),
    ("O=C(O)c1csc(Cc2cc(Cl)ccc2OCc2ccccc2Cl)n1", "EP1 receptors (Homo sapiens, UniProt P34995)", "≤ 31.6 nM"),
    ("Clc1ccc(OCc2ccccc2)c(Cc2nc(-c3nc4ccc(CN5CCCC5)cc4[nH]3)co2)c1", "EP1 receptors (Homo sapiens, UniProt P34995)", "≤ 1000 nM"),
    ("O=C(O)c1coc(Cc2cc(Cl)ccc2OCc2ccccc2)n1", "EP1 receptors (Homo sapiens, UniProt P34995)", "≤ 31.6 nM"),
    ("NC(=O)c1nc(Cc2cc(Cl)ccc2OCc2cc(F)c(F)cc2F)cs1", "EP1 receptors (Homo sapiens, UniProt P34995)", "≤ 1000 nM"),
    ("O=C(O)c1csc(Cc2cc(Cl)ccc2OCc2ccc(F)c(F)c2F)n1", "EP1 receptors (Homo sapiens, UniProt P34995)", "≤ 1000 nM"),
    ("CC(C)COc1ccc(Cl)cc1Nc1nc(-c2nc3ccc(CN4CCCCC4)cc3[nH]2)cs1", "EP1 receptors (Homo sapiens, UniProt P34995)", "≤ 1000 nM"),
    ("CC(C)COc1ccc(Cl)cc1Cc1nc(-c2nc3ccc(N4CCN(C)CC4)nc3[nH]2)cs1", "EP1 receptors (Homo sapiens, UniProt P34995)", "≤ 31.6 nM"),
    ("CC(C)COc1ccc(Cl)cc1Cc1nc(-c2nc3ccc(N4CCCCC4)nc3[nH]2)cs1", "EP1 receptors (Homo sapiens, UniProt P34995)", "≤ 1000 nM"),
]

###

Target: EP1 receptors (Homo sapiens)
Sequence (P34995 1-402): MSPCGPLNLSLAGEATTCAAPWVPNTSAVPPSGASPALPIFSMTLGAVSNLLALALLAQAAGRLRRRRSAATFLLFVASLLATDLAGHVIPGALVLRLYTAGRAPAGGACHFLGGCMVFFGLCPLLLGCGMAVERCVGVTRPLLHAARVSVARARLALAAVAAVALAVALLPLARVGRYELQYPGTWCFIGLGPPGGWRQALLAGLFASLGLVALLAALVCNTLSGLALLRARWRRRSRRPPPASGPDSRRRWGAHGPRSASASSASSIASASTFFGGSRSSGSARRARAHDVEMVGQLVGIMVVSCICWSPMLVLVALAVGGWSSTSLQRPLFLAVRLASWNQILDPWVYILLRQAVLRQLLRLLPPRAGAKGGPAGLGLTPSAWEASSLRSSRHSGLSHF
Experiment: Binding assay for the human prostanoid EP1 receptor (competition with [3H]-PGE2)
Set-up: expressed in transfected cells; host or cells: CHO-K1 cells, membrane fraction
Settings: [3H]-PGE2 competition; averages of a number of experiments; read-out: pIC50 value, binding assay for the human prostanoid EP1 receptor (converted)
Recorded measurements of IC50, one per entry

# substanceSmiles, IC50
data = [
    ("O=C(Nc1ccc(CN2CCCCC2)cc1)c1csc(Cc2cc(Cl)ccc2OCc2ccccc2)n1", "≤ 1000 nM"),
    ("O=C(O)c1csc(Cc2cc(Br)ccc2OCc2ccc(Cl)cc2)n1", "≤ 31.6 nM"),
    ("CC(C)COc1ccc(Cl)cc1Nc1nc(-c2nc3ccc(CN4CCCC4)cc3[nH]2)cs1", "≤ 1000 nM"),
    ("CCCCCOc1ccc(C(F)(F)F)cc1Cc1nc(C(=O)O)cs1", "≤ 1000 nM"),
    ("O=C(NCc1ccccn1)c1csc(Cc2cc(Cl)ccc2OCc2ccccc2)n1", "≤ 1000 nM"),
    ("CC(C)COc1ccc(Cl)cc1Cc1nc(-c2nc3ccc(CCO)cc3[nH]2)cs1", "≤ 31.6 nM"),
    ("O=C(O)c1csc(Cc2cc(Br)ccc2OCc2cc(F)c(F)cc2F)n1", "≤ 31.6 nM"),
    ("CC(C)COc1ccc(Cl)cc1Cc1nc(-c2nc3ccc(Cl)nc3[nH]2)cs1", "≤ 31.6 nM"),
    ("Cc1nnc(-c2csc(Cc3cc(Cl)ccc3OCc3ccccc3)n2)[nH]1", "≤ 1000 nM"),
    ("CC(C)COc1ccc(Cl)cc1Cc1nc(-c2nc3ccc(CN4CCN(C)CC4)cc3[nH]2)co1", "≤ 31.6 nM"),
    ("CC(C)COc1ccc(Cl)cc1Cc1nc(-c2nc3ccc(CN4CCOCC4)cc3[nH]2)cs1", "≤ 31.6 nM"),
    ("Clc1ccc(OCc2ccccc2)c(Cc2nc(-c3nnc[nH]3)cs2)c1", "≤ 1000 nM"),
    ("O=C(NS(=O)(=O)c1ccccc1)c1csc(Cc2cc(Cl)ccc2OCc2cc(F)c(F)cc2F)n1", "≤ 31.6 nM"),
    ("CC(C)COc1ccc(Cl)cc1Cc1nc(-c2nc3ccc(CN4CCCC4)cc3[nH]2)co1", "≤ 31.6 nM"),
    ("O=C(O)c1nc(Cc2cc(Cl)ccc2OCc2ccc(F)cc2)cs1", "≤ 31.6 nM"),
    ("O=C(O)c1cccc2nc(-c3csc(Cc4cc(Cl)ccc4OCc4ccccc4)n3)[nH]c12", "≤ 1000 nM"),
    ("O=C(O)c1csc(Cc2cc(Cl)ccc2OCc2ccc(F)cc2F)n1", "≤ 31.6 nM"),
    ("O=C(Nc1nnn[nH]1)c1csc(Cc2cc(Cl)ccc2OCc2ccccc2)n1", "≤ 1000 nM"),
    ("O=C(Nc1csc(Cc2cc(Cl)ccc2OCc2ccccc2)n1)c1ccc(CN2CCCCC2)cc1", "≤ 1000 nM"),
    ("O=C(O)c1csc(Cc2cc(Cl)ccc2OCc2ccc(Cl)cc2Cl)n1", "≤ 31.6 nM"),
    ("O=C(O)c1nc(Cc2cc(Cl)ccc2OCc2ccccc2Cl)cs1", "≤ 31.6 nM"),
]

###

Target: EP1 receptors (Homo sapiens, UniProt P34995)
Assay: human EP1 calcium mobilisation assay (CHO-K1 cells, FLIPR, PGE2)
Assay type: cell-based
Design: expressed in transfected cells; host or cells: CHO-K1 cells, pCIN vector
Conditions: free bases or sodium salts; averages of a number of experiments; read-out: functional pKi value, human EP1 calcium mobilisation assay (converted)
Procedure: Briefly, the antagonist properties of compounds are assessed by their ability to inhibit the mobilisation of intracellular calcium ([Ca^2+]i) in response to activation of EP1 or EP3 receptors by the natural agonist hormone prostaglandin E2 (PGE2). […] The amount of calcium produced is assessed using a calcium-sensitive fluorescent dye such as Fluo-4, AM and a suitable instrument such as a Fluorimetric Imaging Plate Reader (FLIPR). […]
Counter-ions that a name gives are not always drawn.
metric: Ki

# compound, result
data = [
    ("Clc1ccc(OCc2ccccc2)c(Cc2nc(-c3nc4ccccc4[nH]3)cs2)c1", "< 1000 nM"),
    ("Clc1ccc(OCc2ccccc2)c(Cc2nc(-c3nc4ccc(CN5CCCC5)cc4[nH]3)co2)c1", "< 1000 nM"),
    ("Cc1noc(C)c1S(=O)(=O)NC(=O)c1csc(Cc2cc(Cl)ccc2OCc2ccccc2)n1", "≤ 31.6 nM"),
    ("CC(C)COc1ccc(Cl)cc1Cc1nc(-c2nc3ccc(CCN(C)C)cc3[nH]2)cs1", "< 1000 nM"),
    ("CC(C)COc1ccc(Cl)cc1Cc1nc(-c2nc3ccc(N4CCCCC4)nc3[nH]2)cs1", "< 1000 nM"),
    ("CNCc1ccc2nc(-c3coc(Cc4cc(Cl)ccc4OCC(C)C)n3)[nH]c2c1", "< 1000 nM"),
    ("Clc1ccc(OCc2ccccc2)c(Cc2nc(-c3nc4ccc(N5CCOCC5)cc4[nH]3)cs2)c1 [Example 149, hydrochloride]", "< 1000 nM"),
    ("CC(C)(C)OC(=O)Nc1csc(Cc2cc(Cl)ccc2OCc2ccccc2)n1", "> 1000 nM"),
    ("CNC(=O)c1csc(Cc2cc(Cl)ccc2OCc2ccccc2)n1", "> 1000 nM"),
    ("CN(C)Cc1ccc(NC(=O)c2csc(Cc3cc(Cl)ccc3OCc3ccccc3)n2)cc1 [Example 118, hydrochloride]", "> 1000 nM"),
    ("CC(C)COc1ccc(Cl)cc1Nc1nc(-c2nc3ccc(CN(C)C)cc3[nH]2)cs1", "> 1000 nM"),
    ("CN1CCN(Cc2ccc(C(=O)Nc3csc(Cc4cc(Cl)ccc4OCc4ccccc4)n3)cc2)CC1", "< 1000 nM"),
    ("CC(C)COc1ccc(Cl)cc1Cc1nc(-c2nc3ccc(CCO)cc3[nH]2)cs1", "≤ 31.6 nM"),
    ("CCC(=O)Nc1csc(Cc2cc(Cl)ccc2OCc2ccccc2)n1", "> 1000 nM"),
    ("O=C(NCc1ccccc1)c1csc(Cc2cc(Cl)ccc2OCc2ccccc2)n1", "> 1000 nM"),
    ("O=C(Nc1ccccc1)c1csc(Cc2cc(Cl)ccc2OCc2ccccc2)n1", "> 1000 nM"),
    ("OCc1cccc2nc(-c3csc(Cc4cc(Cl)ccc4OCc4ccccc4)n3)[nH]c12 [Example 143, hydrochloride]", "> 1000 nM"),
    ("CC(C)COc1ccc(Cl)cc1Cc1nc(-c2nc3ccc(CCN4CCN(C)CC4)cc3[nH]2)co1", "< 1000 nM"),
    ("CC(C)COc1ccc(Cl)cc1Cc1nc(-c2nc3ccc(N4CCOCC4)nc3[nH]2)cs1", "≤ 31.6 nM"),
    ("CC(C)COc1ccc(Cl)cc1C(F)(F)c1nc(-c2nc3ccccc3[nH]2)cs1 [Example 141, hydrochloride]", "> 1000 nM"),
    ("Cc1nnc(-c2csc(Cc3cc(Cl)ccc3OCc3ccccc3)n2)[nH]1", "< 1000 nM"),
    ("CS(=O)(=O)NC(=O)c1csc(Cc2cc(Cl)ccc2OCc2ccc(F)cc2)n1", "< 1000 nM"),
    ("CC(C)COc1ccc(Cl)cc1Cc1nc(-c2nc3ccc(N4CCCC4)nc3[nH]2)cs1", "< 1000 nM"),
    ("O=C(Nc1csc(Cc2cc(Cl)ccc2OCc2ccccc2)n1)c1ccc(CO)cc1", "> 1000 nM"),
    ("CC(C)COc1ccc(Cl)cc1Cc1nc(-c2nc3ccc(CN4CCOCC4)cc3[nH]2)cs1", "< 1000 nM"),
    ("O=C(NCc1cccnc1)c1csc(Cc2cc(Cl)ccc2OCc2ccccc2)n1", "< 1000 nM"),
    ("CC(C)COc1ccc(Cl)cc1Cc1nc(-c2nc3ccc(CN(C)C)cc3[nH]2)co1", "< 1000 nM"),
    ("O=C(NCc1ccncc1)c1csc(Cc2cc(Cl)ccc2OCc2ccccc2)n1", "< 1000 nM"),
    ("O=C(Cc1ccccc1)Nc1csc(Cc2cc(Cl)ccc2OCc2ccccc2)n1", "< 1000 nM"),
]
